Answer each item with its documented solubility.
# method: Aqueous solubility determined in pH 5 acetate buffer
# Format: physicochemical

CC[C@@]1(O)C(=O)OCc2c1cc1n(c2=O)Cc2c-1nc1c[n+]([O-])c(CN)cc1c2C; > 3000 µg/mL
CC[C@@]1(O)C(=O)OCc2c1cc1n(c2=O)Cc2cc3c(CN(C)C)c(O)ccc3nc2-1.Cl [TOPOTECAN HYDROCHLORIDE]; 3100 µg/mL
CCc1c2c(nc3cnc(C(=N)NO)cc13)-c1cc3c(c(=O)n1C2)COC(=O)[C@]3(O)CC; > 3000 µg/mL
CCc1c2c(nc3cnc(C#CCN)cc13)-c1cc3c(c(=O)n1C2)COC(=O)[C@]3(O)CC; 5700 µg/mL

For every item below, please supply its solubility.
1. CC[C@@]1(O)C(=O)OCc2c1cc1n(c2=O)Cc2c-1nc1cnc(CN)cc1c2C
2. CCc1c2c(nc3cnc(C(=N)N)cc13)-c1cc3c(c(=O)n1C2)COC(=O)[C@]3(O)CC

[out]
1: 7200 µg/mL; 2: > 3000 µg/mL

###

Please respond with reported solubility for every item in the list.
# method: Aqueous solubility in pH 5 acetate buffer.
# Type: physicochemical

Completed entries (count: 3):
CC[C@@]1(O)C(=O)OCc2c1cc1n(c2=O)Cc2cc3ccccc3nc2-1; < 5 µg/mL
CCc1c2c(nc3c[n+](C)ccc13)-c1cc3c(c(=O)n1C2)COC(=O)[C@]3(O)CC.[I-]; > 2500 µg/mL
CCc1c2c(nc3cnccc13)-c1cc3c(c(=O)n1C2)COC(=O)[C@]3(O)CC; 10 µg/mL

Attention now turns to another entry.
Briefly, solubility measured for CC[C@@]1(O)C(=O)OCc2c1cc1n(c2=O)Cc2cc3cc[n+]([O-])cc3nc2-1 : 300 µg/mL
